- Target or test system: HDAC1 (Homo sapiens (Human))
- Sequence (Q13547 whole entry): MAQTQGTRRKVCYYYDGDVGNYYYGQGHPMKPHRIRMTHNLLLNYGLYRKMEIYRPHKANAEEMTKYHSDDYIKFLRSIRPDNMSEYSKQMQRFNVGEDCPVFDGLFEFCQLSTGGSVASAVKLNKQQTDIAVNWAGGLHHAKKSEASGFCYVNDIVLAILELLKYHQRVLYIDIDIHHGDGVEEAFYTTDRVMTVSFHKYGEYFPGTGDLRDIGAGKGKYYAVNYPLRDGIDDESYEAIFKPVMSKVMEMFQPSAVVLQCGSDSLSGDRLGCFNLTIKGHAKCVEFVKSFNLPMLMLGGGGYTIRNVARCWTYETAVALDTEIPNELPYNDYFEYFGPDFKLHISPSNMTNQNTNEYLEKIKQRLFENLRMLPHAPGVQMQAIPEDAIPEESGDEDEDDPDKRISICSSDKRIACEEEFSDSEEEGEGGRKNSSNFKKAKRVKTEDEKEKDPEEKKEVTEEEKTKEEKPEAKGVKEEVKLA
So basically, if IC50 comes in under 2000 nM it's rule met, and if it's 2000 nM or more it's rule not met.

>>> df
                                    molecule         target_or_test_system   label_value
 0  CCn1cc(COc2cc(-c3noc(C(F)(F)F)n3)ccn2)c(C)n1 [Example 206]  HDAC1 (Homo sapiens (Human))  rule not met
 1  FC(F)Cn1nc(COc2cc(-c3noc(C(F)(F)F)n3)ccn2)cc1C1CC1 [Example 218]  HDAC1 (Homo sapiens (Human))      rule met
 2  COc1ccc(OCc2ccc(-c3noc(C(F)(F)F)n3)c(F)c2)nc1 [Example 243]  HDAC1 (Homo sapiens (Human))      rule met
 3  Fc1cc(COc2ccc3cnccc3n2)ccc1-c1noc(C(F)(F)F)n1 [Example 234]  HDAC1 (Homo sapiens (Human))      rule met
 4  CC1(C)CC(C(=O)N(Cc2ccc(-c3noc(C(F)(F)F)n3)cn2)c2cccc(F)c2)CCO1 (racemic) [Example 63]  HDAC1 (Homo sapiens (Human))      rule met
 5  FC(F)(F)c1nc(-c2ccnc(OCCc3cccc4cn[nH]c34)c2)no1 [Example 167]  HDAC1 (Homo sapiens (Human))  rule not met
 6  Cc1nnc(CC(=O)N(Cc2ccc(-c3noc(C(F)(F)F)n3)cn2)c2cccc(F)c2)s1 [Example 395]  HDAC1 (Homo sapiens (Human))      rule met
 7  FC(F)(F)c1nc(-c2ccc(COc3cccc4[nH]nnc34)nc2)no1 [Example 297]  HDAC1 (Homo sapiens (Human))      rule met
 8  O=C1CC[C@@H](c2nc(-c3ccncc3)no2)N1c1ccc(-c2noc(C(F)(F)F)n2)cc1 [Example 114]  HDAC1 (Homo sapiens (Human))      rule met
 9  FC(F)(F)c1nc(-c2ccc(CNc3cnoc3)nc2)no1 [Example 434]  HDAC1 (Homo sapiens (Human))      rule met
10  CNc1ccccc1NC(=O)[C@@H]1CCC(=O)N1c1ccc(-c2noc(C(F)(F)F)n2)cc1 [Example 109]  HDAC1 (Homo sapiens (Human))      rule met
11  Cn1nc(COc2cc(-c3noc(C(F)(F)F)n3)ccn2)cc1C(C)(C)C [Example 224]  HDAC1 (Homo sapiens (Human))      rule met
12  Cc1cc(OCc2ccc(-c3noc(C(F)(F)F)n3)c(F)c2)cc(C)n1 [Example 237]  HDAC1 (Homo sapiens (Human))      rule met
